# studyTarget: 5-HT2C (Homo sapiens (Human))
# Sequence (P28335 whole entry, looked up): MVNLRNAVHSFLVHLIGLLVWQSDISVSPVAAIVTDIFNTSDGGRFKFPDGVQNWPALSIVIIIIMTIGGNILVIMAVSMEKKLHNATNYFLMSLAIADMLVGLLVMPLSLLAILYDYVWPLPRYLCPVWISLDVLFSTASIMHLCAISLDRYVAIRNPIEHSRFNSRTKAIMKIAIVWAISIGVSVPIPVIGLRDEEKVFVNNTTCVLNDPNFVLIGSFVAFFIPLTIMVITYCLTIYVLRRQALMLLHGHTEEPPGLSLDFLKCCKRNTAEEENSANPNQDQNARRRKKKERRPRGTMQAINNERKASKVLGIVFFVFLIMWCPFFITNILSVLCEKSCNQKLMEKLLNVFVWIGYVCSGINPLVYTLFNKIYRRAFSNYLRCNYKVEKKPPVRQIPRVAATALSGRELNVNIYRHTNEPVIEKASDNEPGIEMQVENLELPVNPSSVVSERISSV
# assayOverview: Ca2+/Fluo-4 assay, stable h5-HT2C-HEK293 cell line;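 further: Agonist-induced intracellular Ca2+ rise read by Fluo-4 fluorescence in HEK293 cells stably expressing the human 5-HT2C receptor, each compound run in duplicate on three or more occasions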
# Assay type: cell-based
# conditions: agonist potency, n = 3-4; read-out: 5-HT2C [pEC50 ± S.E.M.] (converted)
Where a name gives a salt, the structure may show the parent alone.
Binarize EC50 at 1 µM; below is satisfied, at or above is not satisfied.

Worked cases, answers included:
- compound: "CCSc1cc([C@@H]2CCCNC2)c(OC)cc1C(F)(F)F.Cl [Compound 47, Hydrochloride]"
  studyTarget: "5-HT2C (Homo sapiens (Human))"
  classLabel: "satisfied"
- compound: "Br.COc1cc([C@@H]2CCNC2)c(OC)cc1Br [Compound 4, Hydrobromide]"
  studyTarget: "5-HT2C (Homo sapiens (Human))"
  classLabel: "satisfied"
- compound: "COc1cc([C@@H]2CCCNC2)ccc1C(F)(F)F.Cl [Compound 49, Hydrochloride]"
  studyTarget: "5-HT2C (Homo sapiens (Human))"
  classLabel: "not satisfied"
- compound: "COc1cc([C@H]2CCCNC2)c(OC)cc1SC [Compound 17, hydrochloride]"
  studyTarget: "5-HT2C (Homo sapiens (Human))"
  classLabel: "not satisfied"

Now look at this one.
Answer whether the compound COc1cc(C(F)(F)F)c(OC)cc1[C@@H]1CCNC1 has EC50 strictly less than 1 µM
satisfied

Every entry's value here was drawn from patent US11642336B2.
